Tested on: MES SA, MES SA DX and HEK 293T cells
Test: In vitro cytotoxicity assay, structure-activity discussion over the cell lines tested
Conditions: refers to Tables 2 and 3
outcome_measure: cytotoxicity potency (in words, structure-activity discussion)

molecule	reported_value
CCC(C)(C)[C@H](NC(=O)[C@H]1CCCCN1C)C(=O)N(C)[C@H](C[C@@H](OC(C)=O)c1nc(C(=O)N[C@@H](Cc2ccccc2)C[C@H](C)C(=O)O)cs1)C(C)C [Tb109]	exceptional potencies
CC(=O)O[C@H](C[C@H](C(C)C)N(C)C(=O)[C@@H](NC(=O)[C@H]1CCCCN1C)C(C)C)c1nc(C(=O)N[C@@H](Cc2ccccc2)C[C@H](C)C(=O)O)cs1 [Tb61]	exceptional potencies
